- MEASURED TARGET: hPARP14 MD2 (Homo sapiens, UniProt Q460N5)
- Sequence (Q460N5 999-1191): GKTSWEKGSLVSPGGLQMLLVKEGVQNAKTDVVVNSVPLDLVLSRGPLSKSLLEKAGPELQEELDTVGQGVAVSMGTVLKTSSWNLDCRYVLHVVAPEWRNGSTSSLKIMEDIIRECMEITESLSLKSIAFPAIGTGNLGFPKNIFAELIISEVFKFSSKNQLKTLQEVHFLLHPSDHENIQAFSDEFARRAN
MEASURE: Kd

[in] Please report the recorded Kd for `N#C[C@@]1(c2ccc3c(N)ncnn23)O[C@H](CO)[C@@H](O)[C@H]1O` .
[out] ~250 µM

The origin of these recorded values is paper PMC9284540.
